- system: MMP-9 (Homo sapiens, UniProt P14780)
- Construct: purchased Sino Biological 10327-HNAH
- Sequence (P14780 107-707 limits assumed): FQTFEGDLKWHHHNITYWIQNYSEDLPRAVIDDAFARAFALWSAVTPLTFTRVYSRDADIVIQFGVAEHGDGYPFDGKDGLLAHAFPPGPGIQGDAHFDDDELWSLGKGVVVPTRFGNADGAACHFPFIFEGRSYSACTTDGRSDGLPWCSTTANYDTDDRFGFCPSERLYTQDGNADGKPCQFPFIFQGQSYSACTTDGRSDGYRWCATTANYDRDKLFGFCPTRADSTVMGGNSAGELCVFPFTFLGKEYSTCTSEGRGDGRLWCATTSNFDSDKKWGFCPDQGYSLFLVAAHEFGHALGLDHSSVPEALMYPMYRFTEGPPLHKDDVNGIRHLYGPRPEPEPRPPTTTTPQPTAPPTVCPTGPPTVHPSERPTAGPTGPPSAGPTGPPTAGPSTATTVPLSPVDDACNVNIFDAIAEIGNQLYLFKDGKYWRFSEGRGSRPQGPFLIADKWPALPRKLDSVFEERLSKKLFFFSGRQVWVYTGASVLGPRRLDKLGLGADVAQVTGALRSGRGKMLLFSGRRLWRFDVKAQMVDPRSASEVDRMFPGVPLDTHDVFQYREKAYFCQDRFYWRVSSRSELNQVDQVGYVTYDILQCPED
- protocol: MMP-9 inhibition assay (fluorogenic peptide substrate)
- Type: biochemical
- Design: scale not given here
- condition-details: MMP-9, concentration 9.75 µM
endpoint: remaining enzyme activity (% of control)

| chemical-smiles | remaining enzyme activity (% of control) |
| --- | --- |
| O=C(CCC(=O)NCc1c[nH]nn1)NCCCCCCCCNC(=O)Cn1cnc2c(oc3ccccc32)c1=O | 95.46 |
| O=C(CCC(=O)NCc1c[nH]nn1)NCCOCCOCCNC(=O)Cn1cnc2c(oc3ccccc32)c1=O | 94.48 |
| O=C(Cn1cnc2c(oc3ccccc32)c1=O)NCCCCCCCCNC(=O)c1cncc(O)c1 | 88.91 |
| O=C(Cn1cnc2c(oc3ccccc32)c1=O)NCc1c[nH]nn1 | 75.76 |
